Hey, just so you know, these numbers are from paper PMC4052546.

- test.method.notes: Pharmacokinetics of AS and DHA in rat plasma after single and multiple intravenous AS injections (automated blood sampler, LC-MS/MS);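 also: blood drawn through a jugular vein catheter by an automated sampling system, plasma drug levels measured by LC-MS/MS with positive electrospray ionization against standard curves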
- Format: in vivo, Sprague-Dawley rats
- conditions.used: male, Sprague-Dawley, rat, plasma, iv, 20 mg/kg, WRAIR formulation (AS/0.3M PBS Buffer), 20 mg/kg i.v. daily for 3 days, male rats, Period 1, Day 1
property.measured: Cmax (ng/mL)

1) C[C@H]1[C@H](OC(=O)CCC(=O)O)O[C@@H]2O[C@@]3(C)CC[C@H]4[C@H](C)CC[C@@H]1[C@@]24OO3 [AS, artesunate]    4030
2) C[C@H]1[C@@H](O)O[C@@H]2O[C@@]3(C)CC[C@H]4[C@H](C)CC[C@@H]1[C@@]24OO3 [DHA, dihydroartemisinin]    3150
